# experimental_conditions: in tert-butanol, 313.65 K
value_kind: solubility (mole fraction)

C[C@@H]1CC[C@@]2(OC1)O[C@H]1C[C@H]3[C@@H]4CC=C5C[C@@H](O)CC[C@]5(C)[C@H]4CC[C@]3(C)[C@H]1[C@@H]2C 0.00223

----------
# experimental_conditions: in ethanol, 312.35 K
value_kind: solubility (mole fraction)

C[C@@H]1CC[C@@]2(OC1)O[C@H]1C[C@H]3[C@@H]4CC=C5C[C@@H](O)CC[C@]5(C)[C@H]4CC[C@]3(C)[C@H]1[C@@H]2C 0.00188

----------
# experimental_conditions: in ethanol, 301.05 K
value_kind: solubility (mole fraction)

C[C@@H]1CC[C@@]2(OC1)O[C@H]1C[C@H]3[C@@H]4CC=C5C[C@@H](O)CC[C@]5(C)[C@H]4CC[C@]3(C)[C@H]1[C@@H]2C 0.00147
